B1: TRIM39 (parent)
chain: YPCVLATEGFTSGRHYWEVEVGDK

Variants of: B1
assayOverview: protein stability index of a GFP-peptide fusion (GPS, HEK-293T) (PSI 1-6); higher = more stable;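 also: lentivirally expressed fusions sorted by FACS into six bins by GFP to DsRed ratio, PSI derived from sequencing read proportions per bin multiplied by bin number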
measurementParameters: c terminus: a fixed tail appended
reportedEndpoint: protein stability index
Lab note: record just the number, no unit beside it.

[
  {
    "sequenceString": "YPCVLATEGDTSGRHYWEVEVGDK [F10D]",
    "protein stability index": 2.45
  },
  {
    "sequenceString": "YPCVLATEGFTSGRHYPEVEVGDK [W17P]",
    "protein stability index": 3.54
  },
  {
    "sequenceString": "YPCVLATEGFTSGAHYWEVEVGDK [R14A]",
    "protein stability index": 2.37
  }
]

protein stability index measured on YPCVLATEGFTSGRHYWEVEVIDK [G22I] = 1.67

The variant listed as YPRVLATEGFTSGRHYWEVEVGDK [C3R] has a reported protein stability index of 2.99
